Target: PTP MEG2 (Homo sapiens, UniProt P43378)
Construct: made in house; host or cells: E. coli BL-21 (pGEX 6P-1)
Sequence (P43378 262-593 limits assumed): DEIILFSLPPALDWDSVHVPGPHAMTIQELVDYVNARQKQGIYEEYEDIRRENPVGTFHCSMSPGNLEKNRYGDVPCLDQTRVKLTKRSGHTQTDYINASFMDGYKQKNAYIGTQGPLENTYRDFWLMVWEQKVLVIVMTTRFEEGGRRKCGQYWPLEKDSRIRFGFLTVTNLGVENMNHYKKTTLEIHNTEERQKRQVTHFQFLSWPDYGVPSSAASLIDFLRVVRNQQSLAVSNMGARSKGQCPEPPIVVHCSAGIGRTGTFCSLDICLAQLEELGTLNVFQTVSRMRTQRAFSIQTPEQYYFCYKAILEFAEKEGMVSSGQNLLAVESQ
Assay: PTP IC50 assay, pNPP or FDP as substrate
Type: biochemical
Details: comparison of R groups; read-out: IC50 MEG2
pIC50: −log10 of the molar value.
observation-type: pIC50

Nc1ccc(Oc2ccc(Oc3ccc(N)cc3)cc2)cc1    < 4.00
CS(=O)(=O)Nc1ccc(Oc2ccc(Oc3ccc(NS(C)(=O)=O)cc3)cc2)cc1    < 4.00
O=S(=O)(Nc1ccc(Oc2ccc(Oc3ccc(NS(=O)(=O)C(F)(F)F)cc3)cc2)cc1)C(F)(F)F    4.40
